# System: biotinyl-Phe-oxazolone
# protocol summary: self-aminoacylation, catalytic enhancement (BFO) (fold over background); higher = more active; k-Seq, kA / k0A0; sequences stand for … in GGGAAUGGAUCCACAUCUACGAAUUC…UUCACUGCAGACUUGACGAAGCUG
Variants at the floor of the assay were thinned out.
I'd appreciate it if you could supply self-aminoacylation values for the items below.
Could you respond with only the numeric value?

Please report the recorded self-aminoacylation for AUUCACGUAGGUCAUCAGGUG [Fam2.2 aminoacylation ribozyme variant] .
5.34

Next entry: AUUAGCCUAGGUCAUCGGGUG [Fam2.2 aminoacylation ribozyme variant]
219

For CCACACUUCGAGCAAUCCGUC [Fam1B.1 aminoacylation ribozyme variant] then?
0.498

Continue with CCACACUUCAAGCUUUCGGUC [Fam1B.1 aminoacylation ribozyme variant]
0.741

What about this sequence? CCACACUUCAAUCAAUCGGCC [Fam1B.1 aminoacylation ribozyme variant]
2.71

And the next one, CCACUCUUCAAGCAAUCGAUC [Fam1B.1 aminoacylation ribozyme variant] ?
1.28

Another sequence to look at: AUUCACCUAGGUUAACGGGUG [Fam2.2 aminoacylation ribozyme variant]
24.8

// query: CCACCCUUCAAGCAAUCGUUC [Fam1B.1 aminoacylation ribozyme variant]
0.85

Same again, this time with AUUCACCUUGGUCAUCGGGUA [Fam2.2 aminoacylation ribozyme variant]
5.21

Repeat with AAUACCCUGGUCAUCGAGGGA [Fam2.1 aminoacylation ribozyme variant]
1.13

Proceed to CUCCUUAAAACAAUCGGUCUG [Fam1A.1 aminoacylation ribozyme variant]
1.05

Another sequence to look at: CUUCUUCAAAUAAUCGGUCUG [Fam1A.1 aminoacylation ribozyme variant]
10.7

Please do the same for AUGCACCUAUGUCAUCGGGUG [Fam2.2 aminoacylation ribozyme variant] as well.
26.4

// repeat for AAGUGUGCUAAUAGUCGCACG [Fam3.1 aminoacylation ribozyme variant] and report
2.38

What do you have for CUACUUCAAAGAAUUGGUCUG [Fam1A.1 aminoacylation ribozyme variant] ?
0.605

Check CAACUUCAAACAGUCGGUCUG [Fam1A.1 aminoacylation ribozyme variant] too.
5.76

// repeat for AUUCCCCUAGGCCAUCGGGUG [Fam2.2 aminoacylation ribozyme variant] and report
119

What do you get for UCACACUUCAAGCCAUCGGUC [Fam1B.1 aminoacylation ribozyme variant] ?
0.948
